# Test system: Jurkat cells
# ASSAY PROTOCOL: Antiproliferative MTT assay
# Assay type: cell-based
# CONDITION LABEL: Homo sapiens, 72 h, mean ± SEM
Assignment: determine reported GI50 for the given compounds.
Give bare numbers, in nM.

[[record]]
compound = "Clc1ccc2c(N3CCCC3)cc[n+](Cc3ccc(OCCOc4ccc(C[n+]5ccc(N6CCCC6)c6ccc(Cl)cc65)cc4)cc3)c2c1.[Br-].[Br-] [Compound 10l]"
data_value = 7

[[record]]
compound = "CN(c1ccc(Cl)cc1)c1cc[n+](Cc2ccc(-c3ccc(C[n+]4ccc(N(C)c5ccc(Cl)cc5)c5ccccc54)cc3)cc2)c2ccccc12 [RSM932A, reference compound]"
data_value = 410


Observed GI50 on Jurkat cells for CN(c1ccccc1)c1cc[n+](Cc2ccc(OCCOc3ccc(C[n+]4ccc(N(C)c5ccccc5)c5ccc(Cl)cc54)cc3)cc2)c2cc(Cl)ccc12 [Compound 10h] , please.
310
